# System: U2OS
# measurementDescription: Incucyte cell viability with U2OS; note: unitless GR value; below 1 slowed growth and below 0 cell loss
# Assay type: toxicity, cell-based
# testConditions: human, 18 h, 10 µM, compound concentration 10 uM, replicate number 2
measuredQuantity: Growth Rate
API doc: respond with a numeric literal and nothing else, no unit.

If you can, please state the reported Growth Rate value of COc1cc(-c2cc([C@H](O)C3CC3)n3ncnc(N)c23)ccc1CO .
0.89

If you can, please state the reported Growth Rate value of Clc1cccc(Nc2nccc(NCCCN3CCOCC3)n2)c1 .
0.82

If you can, please state the reported Growth Rate value of FC(F)(F)Oc1ccc(-c2ccc3nnc(C(F)(F)F)n3c2)cc1 .
0.92

###

# Test system: HEK-293T
# measurementDescription: Incucyte cell viability with HEK293T; note: unitless GR value; below 1 slowed growth and below 0 cell loss
# Format: toxicity, cell-based
# testConditions: human, 6 h, 10 µM, compound concentration 10 uM, replicate number 1
measuredQuantity: Growth Rate
API doc: respond with a numeric literal and nothing else, no unit.

If you can, please state the reported Growth Rate value of O=C([O-])c1cc2cc(Cc3cccnc3)ccc2o1.[Na+] .
0.1

If you can, please state the reported Growth Rate value of COc1cc2ncnc(Nc3cccc(O)c3)c2cc1OC .
0.14

If you can, please state the reported Growth Rate value of CN(C)C/C=C/C(=O)Nc1cc2c(Nc3ccc(F)c(Cl)c3)ncnc2cc1OC[C@@H]1CCCO1 .
-0.57

If you can, please state the reported Growth Rate value of CCN(c1ccccc1)c1cc(NC)[n+](C)c(C)n1.[Cl-] .
0.95

If you can, please state the reported Growth Rate value of NC(=O)c1ccc(-c2nc(-c3ccc4c(c3)OCCO4)c(-c3ccccn3)[nH]2)cc1 .
0.37
